Assay details: Primary qHTS for small molecule stabilizers of the endoplasmic reticulum resident proteome: Secreted ER Calcium Modulated Protein (SERCaMP) assay (AID 1508630)
Protocol conditions: SH-SY5Y GLuc-SERCaMP (Gaussia luciferase released on ER calcium loss) secretion, thapsigargin, luminescence; series mostly up to 38.4 µM
Inconclusive results are not listed. The source made the active and inactive calls. Calls follow the shape of the dose curve; as a rule, active = well fitted inhibition curve with a large enough effect; inconclusive = small, poorly fitted or top-dose-only effect; inactive = no such curve, though single readings can be large or run the other way.
Experimental readout: outcome

[[record]]
compound = "CO[C@@H]1[C@@H](O[C@@H]2O[C@H](C)[C@@H](O[C@H]3C[C@@](C)(O)[C@@H](O)[C@H](C)O3)[C@H](N(C)C)[C@H]2O)[C@@H](CC=O)C[C@@H](C)[C@@H](O[C@@H]2CC[C@H](N(C)C)[C@@H](C)O2)/C=C/C=C/C[C@@H](C)OC(=O)C[C@H]1OC(C)=O"
observed_result = "inactive"

[[record]]
compound = "O=C(O)Cc1ccccc1Oc1ccc(Cl)cc1Cl"
observed_result = "inactive"

[[record]]
compound = "C/C=C(/C(=C/C)c1ccc(OC(C)=O)cc1)c1ccc(OC(C)=O)cc1"
observed_result = "inactive"

[[record]]
compound = "CCc1cc2cc(OC)c(OC)cc2c(Cc2ccccc2)n1"
observed_result = "inactive"

[[record]]
compound = "CC(=O)Oc1ccc(C2(c3ccc(OC(C)=O)cc3)Oc3ccccc3NC2=O)cc1"
observed_result = "inactive"

[[record]]
compound = "CCCCC(CC)CNC(=O)CC(C)OC(=O)CCC(=O)O (centres undefined)"
observed_result = "inactive"

[[record]]
compound = "C[C@H]1NCc2cc(-c3ccc4c(=O)c(C(=O)O)cn(C5CC5)c4c3OC(F)F)ccc21"
observed_result = "inactive"

[[record]]
compound = "COc1cc2nc(Cl)nc(N)c2cc1OC"
observed_result = "inactive"

[[record]]
compound = "C[N+]1(CC2COC(c3ccccc3)(c3ccccc3)O2)CCCCC1 (centres undefined)"
observed_result = "inactive"

[[record]]
compound = "O=C(O)C1CCC1"
observed_result = "inactive"

[[record]]
compound = "COc1cc(OC)nc(O[C@H](C(=O)O)C(OC)(c2ccccc2)c2ccccc2)n1"
observed_result = "inactive"

[[record]]
compound = "O=C(CCCCCCCCC#CI)Oc1ccccc1"
observed_result = "inactive"

[[record]]
compound = "N#Cc1cc(NC(=O)C(=O)O)c(Cl)c(NC(=O)C(=O)O)c1"
observed_result = "inactive"

[[record]]
compound = "CC(C)(Oc1ccc(Cl)cc1)C(=O)OCCCOC(=O)C(C)(C)Oc1ccc(Cl)cc1"
observed_result = "inactive"

[[record]]
compound = "COc1ccc(CCC(C)=O)cc1"
observed_result = "inactive"

[[record]]
compound = "C[C@H](CN1CCCC1)C(=O)c1ccc(C(F)(F)F)cc1"
observed_result = "inactive"

[[record]]
compound = "CC(=O)N(CC(O)CO)c1c(I)c(C(=O)NCCO)c(I)c(C(=O)NCC(O)CO)c1I (centres undefined)"
observed_result = "inactive"

[[record]]
compound = "C=CC[N+]1([C@H]2C[C@H]3[C@@H]4CC[C@H]5C[C@H](OC(C)=O)[C@@H](N6CCCCC6)C[C@]5(C)[C@H]4CC[C@]3(C)[C@H]2OC(=O)CC)CCCCC1"
observed_result = "inactive"

[[record]]
compound = "CCCCN(CCCC)C(C(N)=O)c1ccc(OC)cc1 (centres undefined)"
observed_result = "inactive"

